System: EKVX NSCLC
Assay: NCI-60 one-dose screen, 48 h
Conditions: 10 µM unless noted
This is part of a sample that, as a whole, favours compounds with a hit. Of some 83,000 tested, about 20% had one in any assay. Active and inactive are the calls of the source. How the source made its calls: active means growth percent below 10; inactive means the rest.
Your answer must be one of the following: active, inactive

As a guide, the following entries are already answered.
molecule: N/C(=N\c1nc2c(Br)cccc2s1)C(Br)Br
test-system: EKVX NSCLC
assigned-category: inactive

molecule: CN(C)CCCOc1c2ccc(Cl)cc2nc2c1oc1ccccc12
test-system: EKVX NSCLC
assigned-category: active

molecule: N[C@@H](Cc1cn(-c2c3ccccc3nc3ccccc23)nn1)C(=O)O
test-system: EKVX NSCLC
assigned-category: inactive

molecule: O=C1c2c(c3c4cccnc4[nH]c3c3ccc4ccccc4c23)C(=O)N1CCO
test-system: EKVX NSCLC
assigned-category: inactive

molecule: c1ccc2c(NCCCn3ccnc3)c3oc4ccccc4c3nc2c1
test-system: EKVX NSCLC
assigned-category: active

Tell me the assay call for "CCOC(=O)c1c(Nc2ccccc2)nn2c(N)c(C#N)c(-c3ccc(OC)cc3)nc12" please.
inactive

For this molecule, state the assay outcome: COc1cc(OC)c(C2C(Cl)C(=O)N2Nc2ncnc3ccccc23)cc1OC (stereo not drawn)
inactive

// return assay outcome for "NS(=O)(=O)c1ccc(Nc2nc(SCC(=O)c3ccc(Cl)cc3)nc3ccccc23)cc1"
inactive

Status in this test for "COc1cc(/C=C/C(=O)c2ccc(C(F)(F)F)cc2)ccc1Oc1nc(NCCO)nc(N2CCOCC2)n1" ?
inactive

---

System: M14 melanoma
Assay: NCI-60 one-dose screen, 48 h
Settings: 10 µM unless noted
The panel holds about 83,000 compounds, 20% with a hit somewhere; the sample as a whole holds those more often. Active and inactive are the calls of the source. How the source made its calls: active means growth percent below 10; inactive means the rest.
Assign a class; possible classes are true (1) = active, false (0) = inactive

molecule: Cc1cccc(/C=C/c2nn3c(-c4ccco4)nnc3s2)c1
test-system: M14 melanoma
assigned-category: false (0)
--
molecule: CCCCCCNC(=O)Oc1ccc(/C(=C(/C)c2ccccc2)c2ccc(OCCN3CCCCCC3)cc2)cc1
test-system: M14 melanoma
assigned-category: true (1)

// param item: "COc1ccc(C(=O)c2cc(C(=O)/C=C/c3c(Cl)cccc3Cl)c3cc(C)ccn23)cc1" ; yields the recorded call
false (0)

# lookup: test call for "NS(=O)(=O)c1cccc(Nc2nc(SCC(=O)c3ccc(Cl)cc3)nc3ccccc23)c1"
false (0)

What call does the record list for Cc1cc(C(NC(=O)CCCCCNc2cccc3c2C(=O)N(C2CCC(=O)NC2=O)C3=O)c2cccnc2)c(O)c2ncccc12 (stereo unspecified) ?
true (1)

Hi team, can someone confirm the assay call for COc1cc(-c2ccc3ncnc(NC(C)c4ccccc4)c3c2)cnc1OC (stereo unspecified) ?
false (0)

---

Tested on: A549/ATCC NSCLC
Assay: NCI-60 one-dose screen, 48 h (100 = growth as untreated, 0 = no growth, -100 = all killed)
Details: 10 µM unless noted
Compounds without any hit were thinned out: in the full panel of roughly 83,000, 20% have a hit.
result-type: growth (%)
Form entry: value (%) — number only.

molecule: OC1CCN(CCCOc2c3ccccc3nc3c2oc2ccccc23)CC1
growth / %: -12.2

molecule: CCN1C(=S)N(CC)C2C1N=C(SC)N2/N=C/C=C/c1ccccc1[N+](=O)[O-] (stereo not drawn)
growth / %: 92.8

molecule: Nc1c(C(=O)Nc2ccc(Cl)cc2)sc2nc(-c3cnccn3)cc(-c3cccs3)c12
growth / %: 68.8

molecule: COc1ccccc1/C=C/C=N/NC1=NC2C(S1)N(C)C(=O)N2C (stereo not drawn)
growth / %: 48.3

molecule: COc1cccc(N2CCN(c3ncnc4c3[nH]c3ccc(F)cc34)C[C@@H]2C)c1
growth / %: 2.18

molecule: [Cl][Ru].c1ccc(-c2cccc(-c3ccccn3)n2)nc1.c1ccc(-c2ccnc3c2ccc2c(-c4ccccc4)ccnc23)cc1
growth / %: 60.5

molecule: Nc1nc(N)c2c(n1)NC(c1ccc(F)cc1)CC(c1ccc(Nc3nc(NCCO)nc(Nc4ccc(Cl)cc4)n3)cc1)=N2 (stereo not drawn)
growth / %: 57

API: the following record is the query input.
Record request: growth value, item "N/C(=N\c1nc2c(Cl)cc(Cl)cc2s1)C(Cl)(Cl)Cl"
-12.9

Value source: PubChem BioAssay (NCI)
